FL1 x count values for the binders below.
- Experimental Target: T1, human CXCR4 (human, UniProt P61073 1-352)
- T1 construct: also called CXCR4 receptor; C-X-C chemokine receptor type 4
- T1 sequence (P61073 whole entry): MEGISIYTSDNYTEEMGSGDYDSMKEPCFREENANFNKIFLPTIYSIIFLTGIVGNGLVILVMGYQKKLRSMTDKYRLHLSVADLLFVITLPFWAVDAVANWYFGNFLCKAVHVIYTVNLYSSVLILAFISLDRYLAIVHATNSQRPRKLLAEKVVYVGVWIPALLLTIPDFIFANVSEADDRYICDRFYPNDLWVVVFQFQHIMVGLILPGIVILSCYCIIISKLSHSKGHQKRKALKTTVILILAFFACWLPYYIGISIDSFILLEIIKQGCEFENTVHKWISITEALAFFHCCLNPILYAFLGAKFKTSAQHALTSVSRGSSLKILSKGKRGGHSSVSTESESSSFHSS
- Test: FMAT, hybridoma supernatant on HEK293T cells transiently overexpressing full-length human CXCR4
Give only the figure.

4C1 (antibody, V domains shown, Fully human monoclonal antibody from XenoMouse hybridoma (strains XMG2 IgG2 or XMG4 IgG4, kappa/lambda); Tested as hybridoma supernatant or purified antibody; also called mAb 4C1; Mab4C1) VH: QVQLVESGGGVVQPGRSLRLSCAASGFTFSSYGMHWVRQAPGKGLEWVAVISYDGSNKYYADSVKGRFTISRDNSKNTLYLQMNSLRAEDTAVYYCTRGGLAARRNYYYSYGMDVWGQGTTVTVSS VL: DIQMTQSPSSLSASVGDRVTITCRASQDIRNDLGWYQQKPGKAPKRLIYAASSLQSGVPSRFSGSGSGTQFTLTISSLQPEDFATYYCLQHNSYPLTFGGGTKVQIK: 1.52e+06

Let us examine a further case.
Ask | Entry 7C8 (antibody, V domains shown, Fully human monoclonal antibody from XenoMouse hybridoma) VH: QVQLVESGGGVVQPGRSLRLSCAASGFTFSSYGMHWVRQAPGKGLEWVAVIWYDGTYKYYADSVRGRFTISRDNSKNTLYLQMNSLRAEDTAVYYCARGPLLRYFDWLSDYWGQGTLVTVSS VL: DIQMTQSPSSLSASVGDRVTITCRASQGIRNDLGWYQQKPGKAPKRLIYAATSLQSGVPSRFSGSGSGTEFTLTISSLQPEDFATYYCLQHNNYPRTFGGGTKVEIK : reported FL1 x count = ?
Reply | 1.46e+06

Cited source: patent US20140314784A1
